pIC50: −log10 of the molar value.
This section lists pIC50 readings for FGFR3 kinase (Homo sapiens).

[
  {
    "COMPOUND": "CCN1CCC[C@H](n2cc(Nc3ncc(CCc4cc(C(=O)NC)cc(OC)c4F)cn3)cn2)C1",
    "pIC50": 8.10
  },
  {
    "COMPOUND": "CCN1CC[C@@H](n2cc(Nc3ncc(CCc4cc(C(=O)NC)cc(OC)c4F)cn3)cn2)C1 [Compound 170]",
    "pIC50": 6.88
  },
  {
    "COMPOUND": "CNC(=O)c1cc(CCc2cnc(Nc3cnn(CCN(C)C)c3)nc2)c(F)c(OC)c1",
    "pIC50": 7.70
  },
  {
    "COMPOUND": "CCONC(=O)c1cc(CCc2cnc(Nc3ccc(N4CCN(CC)CC4)cc3)nc2)cc(OC)c1",
    "pIC50": 7.54
  },
  {
    "COMPOUND": "CNC(=O)c1cc(COc2cnc(Nc3ccc(N4C[C@@H](C)N[C@@H](C)C4)nc3)nc2)c(Cl)c(OC)c1",
    "pIC50": 8.05
  },
  {
    "COMPOUND": "CNC(=O)c1cc(COc2cnc(Nc3ccc(CC(=O)O)cc3)nc2)c(F)c(OC)c1",
    "pIC50": 7.54
  },
  {
    "COMPOUND": "CNC(=O)c1cc(CCc2cnc(Nc3cnn(CCOC)c3)nc2)c(F)c(OC)c1",
    "pIC50": 7.77
  },
  {
    "COMPOUND": "CNC(=O)c1cc(COc2cnc(Nc3ccc(N4C[C@@H](C)N[C@@H](C)C4)nc3)nc2)c(F)c(OC)c1",
    "pIC50": 7.72
  }
]

---

# SYSTEM_NAME: Recombinant human FGFR2 (Homo sapiens, UniProt P21802)
# Sequence (P21802 22-821): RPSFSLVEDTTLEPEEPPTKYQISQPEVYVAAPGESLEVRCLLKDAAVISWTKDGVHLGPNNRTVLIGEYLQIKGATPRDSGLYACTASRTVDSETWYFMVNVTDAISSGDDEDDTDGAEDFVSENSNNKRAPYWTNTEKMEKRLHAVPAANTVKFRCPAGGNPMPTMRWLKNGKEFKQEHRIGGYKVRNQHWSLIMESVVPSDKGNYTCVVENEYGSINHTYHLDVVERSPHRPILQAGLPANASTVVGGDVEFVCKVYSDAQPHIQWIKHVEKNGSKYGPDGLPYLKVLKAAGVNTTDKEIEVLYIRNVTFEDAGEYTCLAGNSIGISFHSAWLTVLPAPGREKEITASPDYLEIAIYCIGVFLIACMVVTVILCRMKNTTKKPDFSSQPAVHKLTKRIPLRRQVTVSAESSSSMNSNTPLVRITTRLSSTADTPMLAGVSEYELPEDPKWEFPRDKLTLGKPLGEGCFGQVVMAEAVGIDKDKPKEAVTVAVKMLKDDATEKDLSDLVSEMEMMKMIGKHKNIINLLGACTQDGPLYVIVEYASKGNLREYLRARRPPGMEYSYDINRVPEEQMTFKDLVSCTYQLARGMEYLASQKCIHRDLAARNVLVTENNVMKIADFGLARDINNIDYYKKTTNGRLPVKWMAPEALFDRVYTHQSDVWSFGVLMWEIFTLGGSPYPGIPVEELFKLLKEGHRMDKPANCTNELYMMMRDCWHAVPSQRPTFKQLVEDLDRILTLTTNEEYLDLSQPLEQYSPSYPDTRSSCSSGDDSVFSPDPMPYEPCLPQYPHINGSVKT
# ASSAY_NAME: Transcreener Kinase Assay of FGFR2
# Type: biochemical
# CONDITION_CONTEXT: read-out: FGFR2 (FP) IC50
MEASUREMENT_LABEL: IC50 (nM)

[
  {
    "MOLECULAR_STRING": "CNC(=O)c1cc(CCc2cnc(Nc3cnn(CCOC)c3)nc2)c(Cl)c(OC)c1",
    "READOUT_VALUE": 5
  },
  {
    "MOLECULAR_STRING": "CNC(=O)c1cc(CCc2cnc(Nc3cnn(C[C@@H](C)O)c3)nc2)c(F)c(OC)c1",
    "READOUT_VALUE": 7
  },
  {
    "MOLECULAR_STRING": "CONC(=O)c1cc(CCc2cnc(Nc3cnn(C)c3)nc2)c(F)c(OC)c1",
    "READOUT_VALUE": 2
  },
  {
    "MOLECULAR_STRING": "CNC(=O)c1cc(CCc2cnc(Nc3cnn(CCN4CCN(C)CC4)c3)nc2)c(F)c(OC)c1",
    "READOUT_VALUE": 7
  },
  {
    "MOLECULAR_STRING": "CCN1CCN(c2ccc(Nc3ncc(CCc4cc(C(=O)NOC)cc(OC)c4F)cn3)cc2)CC1",
    "READOUT_VALUE": 3
  },
  {
    "MOLECULAR_STRING": "CCN1CCN(c2ccc(Nc3ncc(/C=C/c4cc(C(=O)NC)cc(OC)c4F)cn3)cc2)CC1",
    "READOUT_VALUE": 10
  },
  {
    "MOLECULAR_STRING": "CNC(=O)c1cc(CCc2cnc(Nc3cnn(CC(=O)N4CCCC4)c3)nc2)c(F)c(OC)c1",
    "READOUT_VALUE": 7
  },
  {
    "MOLECULAR_STRING": "CNC(=O)c1cc(COc2cnc(Nc3ccc(N4C[C@@H](C)N[C@@H](C)C4)cc3)nc2)c(F)c(OC)c1",
    "READOUT_VALUE": 6
  }
]
